Below, each entry is listed with its recorded viability.
# experiment_notes: growth inhibitors of H69AR lung tumor, primary screen, human, duplicate replicates (AID 580);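 also: 100% = mean luminescence of untreated wells and 0% = no signal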
# particulars: H69AR lung tumor cells viability, ATP luminescence, 72 h; at 10 µM; hits give low values
Reply with just the number (in %).

- CC1CCN(C(=S)c2ccccc2O)CC1: 89

Note: attention shifts to another entry.
Task: Suppose we examine the molecule "O=C(CN1C(=O)c2ccccc2S1(=O)=O)Nc1ccc(S(=O)(=O)N2CCCCCC2)cc1" ; what viability value has been reported?
Result: 103

====

Below, each entry is listed with its recorded differential viability (reversal).
# experiment_notes: reversal of MRP1-mediated doxorubicin resistance, pilot screen, H69AR cells, doxorubicin co-treatment (AID 601)
# particulars: H69AR cells + 2 uM doxorubicin, CellTiter-Glo, 72 h; at 10 µM; hits give high values
Reply with just the number (in %).

Example entries and their recorded answers appear below.
- CC(=O)Nc1ccccc1OCC(=O)c1cc(C)n(Cc2cccs2)c1C: -4.4
- O=C(Nc1cccc2ncccc12)c1ccc2c(c1)OCCO2: 11.7
- O=C(CCN1CCN(CCO)CC1)Nc1ccc(OCc2ccccc2)cc1: 6.03
- O=C(CN1c2cccc3cccc(c23)S1(=O)=O)N1CCOCC1: -0.865
- CCOc1cc2[nH]c(=O)n(CCCCC(=O)NCc3ccco3)c(=O)c2cc1OCC: -12.7

Task: Suppose we examine the compound CC(C)(C)C1CCc2c(sc3c2C(=O)NC(c2ccco2)N3)C1 (stereo unspecified) ; what differential viability (reversal) value has been reported?
Result: -10.4

Task: Suppose we examine the compound CCOC(=O)C1(CC)NC(c2cccc(F)c2)C2C(=O)N(CC)C(=O)C21 (stereo unspecified) ; what differential viability (reversal) value has been reported?
Result: 5.01

Task: Suppose we examine the compound "NC(=O)c1oc2ccc(Cl)cc2c1NC(=O)CN1CCOCC1" ; what differential viability (reversal) value has been reported?
Result: 10.1

Task: Suppose we examine the compound "c1coc(CN2CN=C(Nc3nc4ccccc4s3)NC2)c1" ; what differential viability (reversal) value has been reported?
Result: -0.14

Task: Suppose we examine the compound "COc1nc(NCCc2ccc(OC)c(OC)c2)nc(NC(C)(C)CO)n1" ; what differential viability (reversal) value has been reported?
Result: 7.75

Task: Suppose we examine the compound "CCc1nnc(NC(=O)CSc2nc(-c3ccc(OC)cc3)ns2)s1" ; what differential viability (reversal) value has been reported?
Result: -0.64

====

# experiment_notes: HUVEC growth inhibition – cell-based, human, primary screen (AID 575);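 also: 100% = median of untreated cell wells with 0.1% DMSO on each plate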
# particulars: HUVEC proliferation, CellTiter-Glo luminescence, 72 h; at 10 µM; hits give low values
Note to self: use 1.0 only for viability readings below 90%; a reading exactly at 90% still gets 0.0.

Observe how each entry below is paired with its result.
• O=C(Nc1cnn(C23CC4CC(CC(C4)C2)C3)c1)c1cnn2c(C(F)(F)F)cc(-c3ccco3)nc12 = 1.0
• CC1CCCC(C)N1C(=O)CSc1nnc(-c2cccs2)o1 (stereo unspecified) = 0.0
• CCN(CC)c1ccc2c(C)c(-c3ccc(N)cc3)c(=O)oc2c1 = 1.0

Task: Identify whether the molecule "O=C(CCN1CCOCC1)Nc1ccc2c(c1)CCC2" records viability below 90%.
Result: 1.0

Task: Identify whether the molecule CC1CCCCN1CCNS(=O)(=O)c1ccc2c(c1)oc(=O)n2C (stereo unspecified) records viability below 90%.
Result: 1.0

Task: Identify whether the molecule "Cc1cc(C(=O)N2CCCc3ccccc32)no1" records viability below 90%.
Result: 0.0
